# Test system: ryegrass, Italian (italian ryegrass, Lolium multiflorum)
# assay_remarks: Test A preemergence soil spray, visual injury rating 0-100
# Type: in vivo
# condition_set: 62 g ai/ha, 10 days, 0 = no effect, 100 = complete control
# Text: […]
Assign Ryegrass, Italian plant response rating (0-100) to each entry below.
Reply with the value as a number alone.

Inquiry: Please look up its Ryegrass, Italian plant response rating (0-100): CC1(C(=O)NC2CC=C(C(=O)OCC(F)F)C2)CN(c2cc(F)cc(F)c2)C(=O)O1 (centres unmarked) [Compound 151]
Reply text: 0

Inquiry: Please look up its Ryegrass, Italian plant response rating (0-100): CCOC(=O)C1CC(NC(=O)C2(C)CN(c3cc(F)cc(F)c3)C(=O)O2)C1 (centres unmarked) [Compound 125]
Reply text: 90

Inquiry: Please look up its Ryegrass, Italian plant response rating (0-100): COC(=O)C1=CCC(NC(=O)C2(C)CN(c3cc(Cl)cc(Cl)c3)C(=O)O2)C1 (centres unmarked) [Compound 148]
Reply text: 0

Inquiry: Please look up its Ryegrass, Italian plant response rating (0-100): CC(C)COC(=O)C1=CCC(NC(=O)C2(C)CN(c3cc(Cl)cc(Cl)c3)C(=O)O2)C1 (centres unmarked) [Compound 156]
Reply text: 30

Inquiry: Please look up its Ryegrass, Italian plant response rating (0-100): CC1(C(=O)NC2CC=C(C(=O)OCC(F)F)C2)CN(c2cc(F)cc(F)c2)C(=O)O1 (centres unmarked) [Compound 152]
Reply text: 90

Inquiry: Please look up its Ryegrass, Italian plant response rating (0-100): C=CC1(C(=O)NC2COC(C(=O)OC)C2)CN(c2cc(F)cc(F)c2)C(=O)O1 (centres unmarked) [Compound 170]
Reply text: 20

Inquiry: Please look up its Ryegrass, Italian plant response rating (0-100): CCOC(=O)C1=CCC(NC(=O)C2(C)CN(c3cc(Cl)cc(Cl)c3)C(=O)O2)C1 (centres unmarked) [Compound 113]
Reply text: 0

Inquiry: Please look up its Ryegrass, Italian plant response rating (0-100): COC(=O)C1C=CC(NC(=O)C2(C)CN(c3cc(F)cc(F)c3)C(=O)O2)C1 (centres unmarked) [Compound 89]
Reply text: 90

----------
Assign Barnyardgrass plant response rating (0 to 100 scale) to each entry below.
# Tested on: barnyardgrass (Echinochloa crus-galli)
# assay_remarks: Test A postemergence application, visual injury rating 0-100
# Format: in vivo
# condition_set: Postemergence, 16 g ai/ha, greenhouse 10 days; 0 no effect, 100 complete control
Reply with the value as a number alone.

Inquiry: Please look up its Barnyardgrass plant response rating (0 to 100 scale): COC(=O)C1C=CC(NC(=O)C2(C)CN(c3cc(C)cc(C)c3)C(=O)O2)C1 (stereo not drawn)
Reply text: 70

Inquiry: Please look up its Barnyardgrass plant response rating (0 to 100 scale): CC(C)OC(=O)C1=CCC(NC(=O)C2(C)CN(c3cc(F)cc(F)c3)C(=O)O2)C1 (stereo not drawn)
Reply text: 50

Inquiry: Please look up its Barnyardgrass plant response rating (0 to 100 scale): CCOC(=O)C1=CCC(NC(=O)C2(C)CN(c3cc(Cl)cc(Cl)c3)C(=O)O2)C1 (stereo not drawn)
Reply text: 0

Inquiry: Please look up its Barnyardgrass plant response rating (0 to 100 scale): CC1(C(=O)NC2CC=C(C(=O)NS(=O)(=O)c3ccccc3)C2)CN(c2cc(F)cc(F)c2)C(=O)O1 (racemic)
Reply text: 50

Inquiry: Please look up its Barnyardgrass plant response rating (0 to 100 scale): COC(=O)COC(=O)C1=CCC(NC(=O)C2(C)CN(c3cc(F)cc(F)c3)C(=O)O2)C1 (stereo not drawn)
Reply text: 90

Inquiry: Please look up its Barnyardgrass plant response rating (0 to 100 scale): C=CC1(C(=O)NC2COC(C(=O)OC)C2)CN(c2cc(F)cc(F)c2)C(=O)O1 (stereo not drawn) [Compound 171]
Reply text: 70

----------
# Test system: corn (Zea mays)
# assay_remarks: Test A preemergence soil spray, visual injury rating 0-100
# Type: in vivo
# condition_set: 125 g ai/ha, 10 days, 0 = no effect, 100 = complete control
Assign Corn plant response rating (0 to 100 scale) to each entry below.
Reply with the value as a number alone.

Inquiry: Please look up its Corn plant response rating (0 to 100 scale): CNC(=O)C1C=CC(NC(=O)C2(C)CN(c3cc(Cl)cc(Cl)c3)C(=O)O2)C1 (stereo not shown)
Reply text: 30

Inquiry: Please look up its Corn plant response rating (0 to 100 scale): CCS(=O)(=O)NC(=O)C1C=CC(NC(=O)C2(C)CN(c3cc(Cl)cc(Cl)c3)C(=O)O2)C1 (stereo not shown)
Reply text: 60

Inquiry: Please look up its Corn plant response rating (0 to 100 scale): COC(=O)C1C=CC(NC(=O)C2(C)CN(c3cc(F)cc(Cl)c3)C(=O)O2)C1 (stereo not shown)
Reply text: 80

Inquiry: Please look up its Corn plant response rating (0 to 100 scale): CC(C)COC(=O)C1=CCC(NC(=O)C2(C)CN(c3cc(F)cc(F)c3)C(=O)O2)C1 (stereo not shown) [Compound 16]
Reply text: 70

Inquiry: Please look up its Corn plant response rating (0 to 100 scale): CC1(C(=O)NC2C=CC(C(=O)OC3CCCC3)C2)CN(c2cc(Cl)cc(Cl)c2)C(=O)O1 (stereo not shown)
Reply text: 50

Inquiry: Please look up its Corn plant response rating (0 to 100 scale): CCOC(=O)C1=CCC(NC(=O)C2(C)CN(c3cc(Cl)cc(Cl)c3)C(=O)O2)C1 (stereo not shown)
Reply text: 60

Inquiry: Please look up its Corn plant response rating (0 to 100 scale): CCOC(=O)C1=CCC(NC(=O)C2(C)CN(c3cc(F)cc(F)c3)C(=O)O2)C1 (stereo not shown)
Reply text: 60

Inquiry: Please look up its Corn plant response rating (0 to 100 scale): CONC(=O)C1CC(NC(=O)C2(C)CN(c3cc(F)cc(F)c3)C(=O)O2)CO1 (stereo not shown)
Reply text: 0

Inquiry: Please look up its Corn plant response rating (0 to 100 scale): CNC(=O)C1CC(NC(=O)C2(C)CN(c3cc(F)cc(F)c3)C(=O)O2)CO1 (stereo not shown)
Reply text: 0

Inquiry: Please look up its Corn plant response rating (0 to 100 scale): COC(=O)C1=CCC(NC(=O)C2(C)CN(c3cc(F)cc(F)c3)C(=O)O2)C1 (single isomer, unassigned)
Reply text: 0

Inquiry: Please look up its Corn plant response rating (0 to 100 scale): CC1(C(=O)NC2CC=C(C(=O)O)C2)CN(c2cc(F)cc(F)c2)C(=O)O1 (stereo not shown)
Reply text: 90

Inquiry: Please look up its Corn plant response rating (0 to 100 scale): CC(C)OC(=O)C1C=CC(NC(=O)C2(C)CN(c3cc(Cl)cc(Cl)c3)C(=O)O2)C1 (stereo not shown)
Reply text: 80

Inquiry: Please look up its Corn plant response rating (0 to 100 scale): CC1(C(=O)NC2CC=C(C(=O)NS(=O)(=O)C3CC3)C2)CN(c2cc(Cl)cc(Cl)c2)C(=O)O1 (stereo not shown)
Reply text: 0

Inquiry: Please look up its Corn plant response rating (0 to 100 scale): CC1(C(=O)NC2C=CC(C(=O)OCCS(C)(=O)=O)C2)CN(c2cc(F)cc(F)c2)C(=O)O1 (stereo not shown)
Reply text: 80

Inquiry: Please look up its Corn plant response rating (0 to 100 scale): CC1(C(=O)N[C@H]2C=C[C@@H](C(=O)O)C2)CN(c2cc(F)cc(F)c2)C(=O)O1 (stereo partly shown)
Reply text: 90

Inquiry: Please look up its Corn plant response rating (0 to 100 scale): CC1(C(=O)NC2CC=C(C(=O)O)C2)CN(c2cc(Cl)cc(Cl)c2)C(=O)O1 (stereo not shown)
Reply text: 60

Inquiry: Please look up its Corn plant response rating (0 to 100 scale): COC(=O)COC(=O)C1C=CC(NC(=O)C2(C)CN(c3cc(Cl)cc(Cl)c3)C(=O)O2)C1 (stereo not shown)
Reply text: 70

Inquiry: Please look up its Corn plant response rating (0 to 100 scale): COC(=O)C1C=CC(NC(=O)C2(C)CN(c3cc(Cl)cc(Cl)c3)C(=O)O2)C1 (stereo not shown)
Reply text: 90

Inquiry: Please look up its Corn plant response rating (0 to 100 scale): COC(=O)[C@H]1C[C@@H](NC(=O)C2(C)CN(c3cc(F)cc(F)c3)C(=O)O2)[C@H]2C[C@H]21 (stereo partly shown)
Reply text: 70

Inquiry: Please look up its Corn plant response rating (0 to 100 scale): CC(C)COC(=O)C1=CCC(NC(=O)C2(C)CN(c3cc(F)cc(F)c3)C(=O)O2)C1 (stereo not shown) [Compound 98]
Reply text: 20

Inquiry: Please look up its Corn plant response rating (0 to 100 scale): CC1(C(=O)NC2C=CC(C(=O)OCC(F)(F)F)C2)CN(c2cc(Cl)cc(Cl)c2)C(=O)O1 (stereo not shown)
Reply text: 80

Inquiry: Please look up its Corn plant response rating (0 to 100 scale): CC(C)OC(=O)C1=CCC(NC(=O)C2(C)CN(c3cc(F)cc(F)c3)C(=O)O2)C1 (stereo not shown)
Reply text: 50

Inquiry: Please look up its Corn plant response rating (0 to 100 scale): CC1(C(=O)NC2CCC(C(=O)O)C2)CN(c2cc(F)cc(Cl)c2)C(=O)O1 (stereo not shown)
Reply text: 80

Inquiry: Please look up its Corn plant response rating (0 to 100 scale): CC1(C(=O)NC2CC=C(C(=O)OCC(F)(F)F)C2)CN(c2cc(F)cc(F)c2)C(=O)O1 (single isomer, unassigned) [Compound 24]
Reply text: 0

Inquiry: Please look up its Corn plant response rating (0 to 100 scale): CC1(C(=O)NC2CC=C(C(=O)OCC(F)(F)F)C2)CN(c2cc(F)cc(F)c2)C(=O)O1 (stereo not shown) [Compound 1]
Reply text: 90

These data points were gathered from patent US20260285850A1.
